Lab note: IC50 readings collected with Bile salt export pump (Homo sapiens) for the following compounds.
observation type: IC50

>>> result("CC1=C(/C=C/C(C)=C/C=C/C(C)=C/C(=O)O)C(C)(C)CCC1 [TRETINOIN]")
"< 10 µM"
>>> result("COc1ccc(Cc2nccc3cc(OC)c(OC)cc23)cc1OC [PAPAVERINE]")
"< 10 µM"
>>> result("C=CC1=C(C(=O)O)N2C(=O)[C@@H](NC(=O)/C(=N\\OCC(=O)O)c3csc(N)n3)[C@H]2SC1 [CEFIXIME]")
"> 1000 µM"
>>> result("Cc1scc2c1N(C(=O)CN1CCN(C)CC1)c1ccccc1NC2=O [TELENZEPINE]")
"315 µM"
>>> result("Cc1cccc(C)c1N=C1NCCCS1 [XYLAZINE]")
"> 1000 µM"

Values compiled from ChEMBL document CHEMBL4017441.
